System: HCC-2998 colon
Test: NCI tumour cell line growth inhibition, 48 h; in the data active = GI50 below about 0.43 µM; inactive = the rest
Hi! Could you answer with just one of these? 1 (yes) for active, 0 (no) for inactive

NCc1ccc(-n2c(-c3nonc3N)nc3cnccc32)cc1 : 0 (no)
COc1ccc2c(c1)nc(N)c1c3cccnc3cn21 : 1 (yes)
CC(=O)OC1C2(CC3N4C(=O)C5(CO)SSC4(CC31O)C(=O)N5C)OC(C)C(C)(C)C2=O (configuration not stated) : 1 (yes)
CCc1c[nH]c2ncnc(N3CC[C@@](N)(CNC(=O)c4ccc(F)cc4F)C3)c12 : 0 (no)
Clc1ccc2nc(Oc3ccccc3)cnc2c1 : 0 (no)

INPUT: Assay outcome for O=C(NN1C(=O)CSC1c1ccc(Cl)cc1)c1[nH]c2ccc(F)cc2c1-c1ccccc1 (configuration not stated) : what was it?
OUTPUT: 0 (no)

INPUT: Assay outcome for CCOC(=O)c1c(C)n(Cc2ccc(Cl)cc2Cl)c2c1cc1oc(=O)c(=O)n3c(Cc4ccccc4)nc2c13 : what was it?
OUTPUT: 0 (no)

INPUT: Assay outcome for Fc1ccc(Nc2nccc(-c3c(-c4ccc(C(F)(F)F)cc4)nn4ncccc34)n2)cc1F : what was it?
OUTPUT: 0 (no)

* * *

System: NCI/ADR-RES ovarian
Assay: NCI tumour cell line growth inhibition, 48 h
PROPERTY MEASURED: TGI

O=[N+]([O-])/C(C(Cl)=C(Cl)Cl)=C1/OCCS1 : 33.6 µM
Cc1cc(NS(=O)(=O)c2ccc(Nc3c4ccccc4nc4ccc(C(=O)Nc5ccc(S(=O)(=O)N=C(N)N)cc5)cc34)cc2)no1 : > 100 µM
CCOC(=O)N1CCN(C(=O)Nc2cccc3ccccc23)CC1 : > 10 µM
CC1=CC(=O)C(C(C)=Nc2ccccc2Cl)C(=O)O1 (centres undefined) : > 100 µM

Measured on NCI/ADR-RES ovarian, O=C1CC(CC(OCc2ccccc2)C(COCc2ccccc2)OCc2ccccc2)CC(=O)N1 (centres undefined) has a documented TGI of 97.9 µM

Measured on NCI/ADR-RES ovarian, CN=C(N)N/N=C(\C)c1ccc2oc3ccc(/C(C)=N/NC(N)=NC)cc3c2c1 has a documented TGI of > 100 µM

Measured on NCI/ADR-RES ovarian, CCN1C(=O)C(=Cc2ccc(-c3ccccc3)cc2)C(=O)N(CC)C1=S has a documented TGI of > 100 µM

Measured on NCI/ADR-RES ovarian, Nc1nc(OCc2ccccc2)nc2[nH]ncc12 has a documented TGI of 42.4 µM

* * *

System: MCF7 breast
Test: NCI tumour cell line growth inhibition, 48 h; in the data active = GI50 below about 0.43 µM; inactive = the rest
Hi! Could you answer with just one of these? active, inactive

Here's what some known entries look like.
CCOC(=O)c1c(C)n(Cc2ccc(Cl)cc2Cl)c2c1cc1oc(=O)c(=O)n3c(Cc4ccccc4)nc2c13 : inactive
Fc1ccc(Nc2nccc(-c3c(-c4ccc(C(F)(F)F)cc4)nn4ncccc34)n2)cc1F : inactive
CC[CH2][Pb]([CH2]CC)([CH2]CC)[NH]S(=O)(=O)c1ccc(C)cc1 : active
COC(=O)[C@@H]1CCCN1C(=O)[C@@H]1CCCN1C(=O)[C@@H](Cc1c[nH]c2ccccc12)NC(=S)Nc1cc(C(F)(F)F)cc(C(F)(F)F)c1 : inactive
COc1ccc(-c2ccc(/C=N/n3c(COc4ccc(Cl)cc4)n[nH]c3=S)o2)c([N+](=O)[O-])c1 : inactive
CN(C)c1ccc(N=Nc2c([O-])ccc3ccccc23)cc1.[C-]#[O+].[C-]#[O+].[Ir] : inactive
CC1=CC(=O)C(C(C)=Nc2ccccc2Cl)C(=O)O1 (stereo not drawn) : inactive

Switching to the query record.
INPUT: Assay outcome for Cc1cn2c(/C=N/N/C(N)=N\N)c(-c3ccc(Cl)c([N+](=O)[O-])c3)nc2s1 : what was it?
OUTPUT: inactive

* * *

System: LXFL 529 NSCLC
Test: NCI tumour cell line growth inhibition, 48 h
PROPERTY MEASURED: TGI

Recorded TGI, per entry:
CC(C)=CC(=O)CC(=O)C(=O)Nc1ccc(Cl)c(Cl)c1 : > 100 µM
O=C(O)c1c[nH]cc1C(=O)O : > 100 µM
CC(=O)C1=C([O-])C(C)OC1=O.CC(=O)C1=C([O-])C(C)OC1=O.[NH-]C1CCCC[C@H]1[NH-].[Pt+4] (centres undefined) : > 100 µM
O=C1CCC2(c3ccccc3)Nc3cc(Cl)ccc3N12 (centres undefined) : > 100 µM
Cc1cccc(C)c1NC(=O)CCCC(=O)C1CCC/C1=N\NC(=O)C(=O)NN (centres undefined) : > 100 µM

According to the records, this compound CN(C)c1ccc(N=Nc2c([O-])ccc3ccccc23)cc1.[C-]#[O+].[C-]#[O+].[Ir] displays TGI of 31.2 µM

According to the records, this compound CCOC(=O)/C(C#N)=C1\N[C@H](C(=O)OCC)CO1 displays TGI of > 100 µM

According to the records, this compound COC(=O)C(Cc1nc2ccc(Cl)cc2[nH]c1=O)C(=O)C(=O)Nc1ccccc1[N+](=O)[O-] (centres undefined) displays TGI of > 100 µM

According to the records, this compound O=C(Cc1ccccc1)N/N=C(\C1=Nc2ccc([N+](=O)[O-])cc2NC1O)C(O)c1ccc([N+](=O)[O-])cc1 (centres undefined) displays TGI of > 100 µM

According to the records, this compound CN(C)CCNC(=O)c1ccc(Cl)c2c(Nc3ccc(S(N)(=O)=O)cc3)c3ccccc3nc12 displays TGI of 11.2 µM

* * *

System: NCI-H522 lung
Test: NCI tumour cell line growth inhibition, 48 h
PROPERTY MEASURED: TGI

Recorded TGI, per entry:
COc1ccc(COCC(Cn2ccnc2)OCc2ccc(C(=O)O)cc2)cc1 (stereo not given) : > 100 µM
CC(C)(C)OC(=O)CN1CCNCCN(CC(=O)OC(C)(C)C)CC1 : > 100 µM
CC(=O)O[C@]12CCC[C@H]1C1(O)C(O)CCC[C@H]12 (stereo not given in full) : > 100 µM

According to the records, this molecule O=C1C(N=Nc2ccc(-c3nc4ccccc4o3)cc2)NC(=S)N1c1ccccc1 (stereo not given) displays TGI of > 100 µM

According to the records, this molecule O=C1CCc2cc3c(cc21)CC1(Cc2ccccc2C1)C3 displays TGI of > 79.9 µM

* * *

TGI values, listed per item
System: SNB-19 CNS
Assay: NCI tumour cell line growth inhibition, 48 h

Recorded TGI, per entry:
C/C1=C\CC[C@@](C)(O)[C@@H]2CC3[C@@H](OC(=O)C34CC4)[C@@H](O2)[C@H](C)CCC1 (stereo not given in full) : > 100 µM
Fc1ccc(Nc2nccc(-c3c(-c4ccc(C(F)(F)F)cc4)nn4ncccc34)n2)cc1F : > 25 µM
C=C(C)[C@@H]1CC[C@@]2(C)[C@H]1[C@H]1CCC3[C@@]4(C)CC[C@H](O)C(C)(C)[C@@H]4CC[C@@]3(C)[C@]1(C)C[C@@H]2O (stereo not given in full) : > 100 µM
CC(C)OC(=O)c1ccc2[nH]c(O)c(C(=Nc3ccc(N(C)C(=O)CN4CCN(C)CC4)cc3)c3ccccc3)c2c1 : 2.33 µM
CCOC(=O)c1cnn(-c2ccnc3c(C(F)(F)F)cccc23)c1N : > 100 µM

According to the records, this compound c1ccc2c(c1)CCN2CCc1c[nH]c2ccccc12 displays TGI of > 10 µM

According to the records, this compound C=C(Br)CN(CC(=C)Br)C(C)=O displays TGI of > 100 µM

According to the records, this compound Cc1cc(C)c(C)c(-n2[nH]c(=O)n(C)c2=O)c1C displays TGI of > 100 µM

* * *

Test system: SR leukemia
Experiment: NCI tumour cell line growth inhibition, 48 h
GI50 values, listed per item

CCCCCCCCCCCCC(=O)[O-].CCCCCCCCCCCCC(=O)[O-].CCCCCCCCCCCCC(=O)[O-].CCCCCCCCCCCCC(=O)[O-].[Mo+2].[Mo+2] : 5.83 µM
Oc1cc(Cl)ccc1Oc1ccc(Cl)cc1Cl : 3.46 µM
N#CC1C(N)=NNC12Nc1ccccc1N2 (stereo not given) : 6.4 µM
COC(=O)[C@@H]1CCCN1C(=O)[C@@H]1CCCN1C(=O)[C@@H](Cc1c[nH]c2ccccc12)NC(=S)Nc1cc(C(F)(F)F)cc(C(F)(F)F)c1 : 2.39 µM

Next, consider the following compound.
According to the records, this compound C=C[C@]1(C)C=C2C(=O)[C@@]3(O)OC[C@@]4(CCCC(C)(C)C43O)C2(O)C(O)C1 (stereo not given in full) displays GI50 of 1.97 µM

* * *

Test system: IGROV1 ovarian
Assay: NCI tumour cell line growth inhibition, 48 h
TGI values, listed per item

Measured on IGROV1 ovarian, COC1OC(COC(=O)NCCCCC(=O)C(F)(F)F)C(O)C(O)C1O (configuration not stated) has a documented TGI of > 100 µM

Measured on IGROV1 ovarian, CCCCC[C@H]1C/C=C2/C(=O)C(Cl)=C[C@@H]2C/C=C\CCCC(=O)O[C@@H](CCCCC)C/C=C2/C(=O)C(Cl)=C[C@@H]2C/C=C\CCCC(=O)O1 has a documented TGI of 0.958 µM

Measured on IGROV1 ovarian, CCOC(=O)c1cnn(-c2ccnc3c(C(F)(F)F)cccc23)c1N has a documented TGI of > 100 µM

Measured on IGROV1 ovarian, CC(C)(C)OC(=O)CN1CCNCCN(CC(=O)OC(C)(C)C)CC1 has a documented TGI of > 100 µM

Measured on IGROV1 ovarian, CO[C@@H](c1ccccc1)[C@H](O)[C@](O)(c1ccccc1)P(=O)(OC)OC has a documented TGI of > 100 µM

Measured on IGROV1 ovarian, N#Cc1ccccc1NC(=O)c1ccccc1 has a documented TGI of > 100 µM

Measured on IGROV1 ovarian, [O-]c1on[n+]2c1c(Nc1ccc(Cl)cc1)nc1ccccc12 has a documented TGI of > 100 µM

Measured on IGROV1 ovarian, CC(C)=CCC/C(C)=C/Cc1c(O)ccc2c1[nH]c1cc(O)c(C)cc12 has a documented TGI of > 25 µM

Measured on IGROV1 ovarian, O=C(O)CCC1CCc2cccc3occ1c23 (configuration not stated) has a documented TGI of > 100 µM

Measured on IGROV1 ovarian, O=C(NCCNCCO)N/N=C/c1ccc([N+](=O)[O-])cc1 has a documented TGI of > 100 µM

Measured on IGROV1 ovarian, O=c1oc2ccc(Cl)cc2c(=O)n1-c1ccc(I)cc1F has a documented TGI of > 42.3 µM

Measured on IGROV1 ovarian, CCOC(=O)N1C2C=C(C)C(C3C(C)C(=O)N31)N(C(=O)c1ccccc1)O2 (configuration not stated) has a documented TGI of > 100 µM

Measured on IGROV1 ovarian, CN(C)Cc1cc(N=Nc2ccccc2Cl)cc(CN(C)C)c1O has a documented TGI of > 100 µM

Measured on IGROV1 ovarian, O=[N+]([O-])c1ccc(N=NN2CCCC2)cc1 has a documented TGI of > 100 µM

Measured on IGROV1 ovarian, O=C(O)C/C(=C\c1ccccc1)C(=O)O has a documented TGI of > 100 µM

Measured on IGROV1 ovarian, Cc1ccc(C(=O)C#Cc2cn(C3CC(O)C(CO)O3)c(=O)[nH]c2=O)cc1 (configuration not stated) has a documented TGI of > 100 µM

Measured on IGROV1 ovarian, CCc1cc2c(cc1CCCC(=O)O)CC1(Cc3ccc(C(=O)O)cc3C1)C2 (configuration not stated) has a documented TGI of > 100 µM
